Procedure text: CCTE_Shafer_MEA_acute_cross_correlation_HWHM: CCTE's Neural Acute Assay for Cross Correlation at Half Width at Half Maximum, Shafer Lab (AID 2284026);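 also: percent change per well from pre-dose baseline in spike cross-correlogram half width; hits are a decrease in cross-correlogram half width relative to DMSO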
Activity calls are given as the source filed them. The calls were made as follows: active = hit-call score of the fitted dose curve at least 0.9, where 1 is the maximum; inactive = score below 0.9.
Outcomes: 1.0 (active), 0.0 (inactive)

| Compound | Class name |
| --- | --- |
| O=CN1CCOCC1 | 0.0 |
| CN(C)C(=S)SC(=S)N(C)C | 0.0 |
| CCCCCCC(CO)CCCC (stereo not given) | 1.0 |
| CCOC(=O)C(C#N)=C(c1ccccc1)c1ccccc1 | 0.0 |
| COCCc1ccc(OCC(O)CNC(C)C)cc1 (stereo not given) | 0.0 |

---

Study system: Nuclear respiratory factor 1 (Homo sapiens) (UniProt Q16656)
Sequence (Q16656 whole entry, looked up): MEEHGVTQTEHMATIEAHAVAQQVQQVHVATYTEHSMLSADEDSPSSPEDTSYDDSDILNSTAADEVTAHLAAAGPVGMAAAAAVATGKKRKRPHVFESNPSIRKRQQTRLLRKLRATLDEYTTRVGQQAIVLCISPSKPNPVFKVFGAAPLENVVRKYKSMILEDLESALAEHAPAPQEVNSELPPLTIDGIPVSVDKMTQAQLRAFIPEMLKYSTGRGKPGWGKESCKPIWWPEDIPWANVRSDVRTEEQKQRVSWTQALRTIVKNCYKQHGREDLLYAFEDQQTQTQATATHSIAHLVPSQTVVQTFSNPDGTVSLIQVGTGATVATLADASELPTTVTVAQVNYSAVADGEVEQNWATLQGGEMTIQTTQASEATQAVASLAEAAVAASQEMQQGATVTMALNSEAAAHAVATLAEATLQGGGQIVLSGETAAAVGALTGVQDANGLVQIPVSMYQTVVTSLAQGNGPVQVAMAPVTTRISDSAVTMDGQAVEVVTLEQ
Procedure text: ATG_NRF1_CIS: Attagene CIS-FACTORIAL HepG2 Assay for human Nuclear Respiratory Factor 1 (NRF1) Orphan Gene (AID 2282987)
Stated conditions: HepG2 NRF1 cis-element reporter, Attagene multiplex; actives raise or lower the signal
Calls of active or inactive are those of the source. How the source made its calls: active means hit-call score of the fitted dose curve at least 0.9, where 1 is the maximum; inactive means score below 0.9.
Outcomes: YES for active, NO for inactive

| Molecule | Class name |
| --- | --- |
| Cc1c(Cl)cccc1[N+](=O)[O-] | NO |
| COC(=O)c1cccnc1 | NO |
| CC(C)=CCCC(C)CCOC=O (stereo not drawn) | NO |
| CCOc1ccc(NC(=O)CC(C)O)cc1 (stereo not drawn) | NO |
| CCCCN(CCCC)C(=O)N(CCCC)CCCC | YES |
| CS(=O)(=O)OCCCCOS(C)(=O)=O | NO |
| C=CCCCCCCCCCC | NO |
| COC(=O)Nc1ccc(Cl)c(Cl)c1 | NO |
| COc1cc(Cl)c(OC)cc1N | NO |
| CCc1cc(C(C)(C)C)c(O)c(C(C)(C)C)c1 | NO |
| N#Cc1cscn1 | NO |
| CCCC(=O)OC(C)(C)Cc1ccccc1 | NO |
| NC1CCCCC1N (stereo not drawn) | NO |
| C=C(C)[C@@H]1CC=C(C)C(=O)C1 | NO |
| COc1ccccc1N=Nc1c(S(=O)(=O)O)cc2cc(S(=O)(=O)O)cc(NC(C)=O)c2c1O | NO |
| COc1ccc(COC(C)=O)cc1 | NO |
| COc1ccccc1[N+](=O)[O-] | NO |
| CC(C)=CCCC(C)CC(=O)O (stereo not drawn) | NO |
| COC(=O)c1ccc([N+](=O)[O-])cc1 | NO |
| COc1ccc(OC)c(N=Nc2c(O)ccc3ccccc23)c1 | NO |
| COC(C)(C)CCCC(C)CC=O (stereo not drawn) | NO |
| Cc1ccc(S(=O)(=O)Oc2ccc(N=Nc3ccc(-c4ccc(N=Nc5c(O)ccc6cc(S(=O)(=O)O)cc(S(=O)(=O)O)c56)c(C)c4)cc3C)cc2)cc1 | NO |
| Cc1cc(S(=O)(=O)O)ccc1N=Nc1c(O)ccc2ccccc12 | NO |
| CCCN(CCC)S(=O)(=O)c1ccc(C(=O)O)cc1 | NO |
| c1ccc2[nH]cnc2c1 | NO |
| C1CCCCC1 | NO |
| CC(C)OCCO | NO |
| CCCCCCCCCC(=O)OC | NO |
| Nc1ccc(NCCO)c([N+](=O)[O-])c1 | NO |
| C/C=C(\C)C(=O)OCCc1ccccc1 | NO |
| CC(C)CCCCCCc1ccc(OCCOCCO)cc1 | NO |
| CCCCOC(=O)CCCCCCCC(=O)OCCCC | NO |
| Cc1cc(C)nc(NS(=O)(=O)c2ccc(N)cc2)n1 | NO |
| CCCCCCC(C)(C)S | NO |
| CCCC(=O)c1ccccc1 | NO |
| CCCCC(CC)(CO)CO | NO |
| C[C@H]1O[C@@H](O[C@H]2[C@@H](O)C[C@H](O[C@H]3[C@@H](O)C[C@H](O[C@H]4CC[C@@]5(C)[C@H](CC[C@@H]6[C@@H]5C[C@@H](O)[C@]5(C)[C@@H](C7=CC(=O)OC7)CC[C@]65O)C4)O[C@@H]3C)O[C@@H]2C)C[C@H](O)[C@@H]1O | YES |
| Nc1ccc(N)c2c1C(=O)c1ccccc1C2=O | NO |
| CCCC(=O)OCCc1ccccc1 | NO |
| CC(C)Nc1nc(N)nc(Cl)n1 | NO |
| CCOC(=O)C1OC1c1ccccc1 (stereo not drawn) | NO |
| CCCCCCOC(=O)CCC | NO |
| OCCc1ccccc1 | NO |
| CN1C(=O)c2ccccc2C1=O | NO |
| C=CC(C)(O)CCC=C(C)C (stereo not drawn) | NO |
| CC(C)CC(C)CC(O)CC(C)C (stereo not drawn) | NO |
| CCCCC1(COC(=O)CCC(=O)O)C(=O)N(c2ccccc2)N(c2ccccc2)C1=O | NO |
| O=C(O)COCC(=O)O | NO |
| CCC(=O)O[C@@H]1C[C@H]2CC[C@]1(C)C2(C)C | NO |
| CC(=O)C1(C)CC2=C(CCCC2(C)C)CC1C (stereo not drawn) | NO |
| CCCCCCOCCOCCO | NO |
| C=Cc1ccc(C)cc1 | NO |
| CCOCCOCCOCC | NO |
